protocol-notes: The drug is tested on Bacteroides fragilis strain: T(B)9 for biotransformation. The drug concentrations were measured before and after a 12-h incubation by liquid-chromatography-coupled mass spectrometry (LC–MS)
experimental-parameters: 2 µM
quantity-kind: Bacterial Biotransformation

Worked set:
CC(C)NCC(O)COc1ccc(CCOCC2CC2)cc1 (configuration not stated) :: Compound NOT metabolized
C#C[C@]1(OC(C)=O)CC[C@H]2[C@@H]3CCC4=C/C(=N/O)CC[C@@H]4[C@H]3CC[C@@]21CC [NORGESTIMATE] :: Compound NOT metabolized
COC1=CC(=O)C[C@@H](C)[C@]12Oc1c(Cl)c(OC)cc(OC)c1C2=O :: Compound metabolized
CN(C)CCC=C1c2ccccc2C=Cc2ccccc21 :: Compound NOT metabolized
Nc1nc2ccc(OC(F)(F)F)cc2s1 :: Compound metabolized
CN/C(=N/CCSCc1nc[nH]c1C)NC#N :: Compound metabolized
Cc1ccc(NC(=O)c2ccc(CN3CCN(C)CC3)cc2)cc1Nc1nccc(-c2cccnc2)n1 :: Compound NOT metabolized
COC(=O)Nc1nc2ccc(C(=O)c3ccccc3)cc2[nH]1 :: Compound metabolized

# ---- query molecule ----
stdin: Using known records, supply Bacterial Biotransformation for O=C(O)COCCN1CCN(C(c2ccccc2)c2ccc(Cl)cc2)CC1 (configuration not stated)
stdout: Compound metabolized
